target: Sphingosine 1-phosphate receptor 2 (Homo sapiens, UniProt O95136); experiment: Antagonist activity at recombinant human S1P2 receptor in HFL1 cells assessed as inhibition of EC80 S1P-induced IL8 release incubated for 16 to 24 hrs in absence of HSA by ELISA; type: functional, cell-based
Sequence (O95136 whole entry): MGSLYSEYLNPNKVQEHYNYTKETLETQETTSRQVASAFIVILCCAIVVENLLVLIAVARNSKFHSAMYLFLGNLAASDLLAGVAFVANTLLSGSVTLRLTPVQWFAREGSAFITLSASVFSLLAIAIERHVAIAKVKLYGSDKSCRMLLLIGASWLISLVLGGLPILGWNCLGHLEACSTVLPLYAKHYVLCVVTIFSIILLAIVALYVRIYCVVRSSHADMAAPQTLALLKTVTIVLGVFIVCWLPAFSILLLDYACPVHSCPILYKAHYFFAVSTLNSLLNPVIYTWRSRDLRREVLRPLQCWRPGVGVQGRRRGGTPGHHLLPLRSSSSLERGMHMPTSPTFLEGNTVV
pIC50: −log10 of the molar value.
PROPERTY NAME: pIC50

{"SMILES ENTRY": "CCOc1cc(NC(=O)NCc2cc(C)c(-c3cn(C)nc3C)cn2)cc(Cl)n1", "REPORTED VALUE": 10.49}
{"SMILES ENTRY": "CCOc1nc(C)cc(NC(=O)NCc2cc(C)c(-c3cn(C)nc3C(F)(F)F)nn2)c1Cl", "REPORTED VALUE": 7.59}
{"SMILES ENTRY": "CCOc1cc(NC(=O)NCc2cc(C)c(-c3cn(C)nc3C(F)(F)F)nn2)cc(C#N)n1", "REPORTED VALUE": 7.46}

[a] CCOc1cc(NC(=O)NCc2cc(C)c(-c3cn(C)nc3C(F)(F)F)nn2)cc(C(F)(F)F)n1
[b] Cc1cc(CNC(=O)Nc2cc(Cl)nc(Cl)c2)ncc1-c1cn(C)nc1C
[c] CCOc1cc(NC(=O)NCc2cc(C)c(-c3cn(C)nc3C(F)(F)F)nn2)cc(C)n1
[d] CCOc1nc(Cl)cc(NC(=O)NCc2cc(C)c(-c3cn(C)nc3C(F)(F)F)nn2)c1C
Order the items by recorded pIC50; the first position goes to the largest value. Respond with the label ranking, as requested.
b, d, a, c

---

target: Sphingosine 1-phosphate receptor 2 (Homo sapiens); experiment: Antagonist activity at recombinant human S1P2 receptor in HFL1 cells assessed as inhibition of EC80 S1P-induced IL8 release measured as unbound concentration incubated for 16 to 24 hrs in presence of 2% HSA by ELISA; type: functional, cell-based; settings: filed as antagonist, time 16-24 hrs
PROPERTY NAME: fIC50 (nM)

Some molecules with recorded fIC50:
{"SMILES ENTRY": "CCOc1nc(C)cc(NC(=O)NCc2cc(C)c(-c3cn(C)nc3C(F)(F)F)nn2)c1Cl", "REPORTED VALUE": 0.55}
{"SMILES ENTRY": "CCOc1cc(NC(=O)NCc2cc(C)c(-c3cn(C)nc3C(F)(F)F)nn2)cc(C(F)(F)F)n1", "REPORTED VALUE": 0.6}
{"SMILES ENTRY": "Cc1cc(CNC(=O)Nc2cc(C(F)(F)F)nc(OCCO)c2C)nnc1-c1cn(C)nc1C(F)(F)F", "REPORTED VALUE": 5.4}
{"SMILES ENTRY": "CCOc1cc(NC(=O)NCc2cc(C)c(-c3cn(C)nc3C(F)(F)F)nn2)cc(C#N)n1", "REPORTED VALUE": 3}
{"SMILES ENTRY": "CCOc1cc(NC(=O)NCc2cc(C)c(-c3cn(C)nc3C(F)(F)F)nn2)cc(C)n1", "REPORTED VALUE": 15}
{"SMILES ENTRY": "CCOc1nc(Cl)cc(NC(=O)NCc2cc(C)c(-c3cn(C)nc3C(F)(F)F)nn2)c1C", "REPORTED VALUE": 0.16}
{"SMILES ENTRY": "CCOc1cc(NC(=O)NCc2cc(C)c(-c3cn(C)nc3C(F)(F)F)nn2)cc(Cl)n1", "REPORTED VALUE": 1}
{"SMILES ENTRY": "Cc1cc(CNC(=O)Nc2cc(Cl)nc(OCC(F)F)c2)nnc1-c1cn(C)nc1C(F)(F)F", "REPORTED VALUE": 1.3}

[P] CCOc1nc(C)cc(NC(=O)NCc2cc(C)c(-c3cn(C)nc3C(F)(F)F)nn2)c1C
[Q] Cc1cc(CNC(=O)Nc2cc(OCCO)nc(C(F)(F)F)c2)nnc1-c1cn(C)nc1C(F)(F)F
Consider P and Q . Which of these has its fIC50 at a higher number? Could you answer with the label of the item you picked?
Q

---

biological target: Sphingosine 1-phosphate receptor 2 (Homo sapiens, UniProt O95136); assay: Antagonist activity at recombinant human S1P2 receptor expressed in CHO cells assessed as EC80 S1P-induced activation incubated for 4 hrs in presence of [35S]GTPgammaS by Topcount reader; assay type: functional, cell-based
PROPERTY NAME: IC50 (µM)

{"SMILES ENTRY": "Cc1cc(NNC(=O)Nc2cc(Cl)nc(Cl)c2)nc(-c2cnn(C)c2)c1", "TESTED SYSTEM": "Sphingosine 1-phosphate receptor 2 (Homo sapiens, UniProt O95136)", "REPORTED VALUE": 3.1}
{"SMILES ENTRY": "Cc1cc(CNC(=O)c2cc3c(Cl)nc(Cl)cc3[nH]2)ncc1-c1cn(C)nc1C", "TESTED SYSTEM": "Sphingosine 1-phosphate receptor 2 (Homo sapiens, UniProt O95136)", "REPORTED VALUE": 1.3}

[1] Cc1cc(NNC(=O)Nc2cc(Cl)nc(Cl)c2)ncc1C#N
[2] Cc1cc(CNc2nc3cc(Cl)c(Cl)cc3[nH]2)ncc1-c1cn(C)nc1C
Hello, I am sorting some records. Could you say if 1 or 2 has the smaller IC50 value? Could you answer with the label of the item you picked?
2

---

test: Intrinsic clearance unbound in mouse liver microsomes at 1 uM […] by LC-MS/MS analysis; format: ADME, Microsome
PROPERTY NAME: CL free (mL/min/kg)

Some molecules with recorded CL free:
{"SMILES ENTRY": "Cc1cc(CNC(=O)Cc2ccc(Cl)c(Cl)c2)ncc1-c1cn(C)nc1C", "CL free [mL/min/kg]": 3770}
{"SMILES ENTRY": "CCOc1cc(NC(=O)NCc2cc(C)c(-c3cn(C)nc3C(F)(F)F)cn2)cc(Cl)n1", "CL free [mL/min/kg]": 450}
{"SMILES ENTRY": "Cc1cc(CNc2nc3cc(Cl)c(Cl)cc3[nH]2)ncc1-c1cn(C)nc1C", "CL free [mL/min/kg]": 2580}

[I] Cc1cc(CNC(=O)Nc2cc(OCCO)nc(C(F)(F)F)c2)nnc1-c1cn(C)nc1C(F)(F)F
[II] Cc1cc(CNC(=O)c2cc3c(Cl)nc(Cl)cc3[nH]2)ncc1-c1cn(C)nc1C
Consider I and II . Which of these has its CL free at a higher number? Could you answer with the label of the item you picked?
II
(II: 633 mL/min/kg, I: 102 mL/min/kg)

[P] CCOc1cc(NC(=O)NCc2cc(C)c(-c3cn(C)nc3C)cn2)cc(Cl)n1
[Q] CCOc1cc(NC(=O)NCc2cc(C)c(-c3cn(C)nc3C(F)(F)F)nn2)cc(C(F)(F)F)n1
Consider P and Q . Which of these has its CL free at a higher number? Could you answer with the label of the item you picked?
P
(P: 700 mL/min/kg, Q: 140 mL/min/kg)

---

molecular target: Sphingosine 1-phosphate receptor 2 (Homo sapiens, UniProt O95136); assay: Antagonist activity at recombinant human S1P2 receptor in HFL1 cells assessed as inhibition of EC80 S1P-induced IL8 release incubated for 16 to 24 hrs in presence of 2% HSA by ELISA; format: functional, cell-based
pIC50: −log10 of the molar value.
PROPERTY NAME: pIC50

Some compounds with recorded pIC50:
{"SMILES ENTRY": "Cc1cc(CNC(=O)Nc2cc(OCCO)nc(C(F)(F)F)c2)nnc1-c1cn(C)nc1C(F)(F)F", "pIC50": 6.09}
{"SMILES ENTRY": "CCOc1nc(C)cc(NC(=O)NCc2cc(C)c(-c3cn(C)nc3C(F)(F)F)nn2)c1C", "pIC50": 7.31}

[1] COCCOc1cc(NC(=O)NCc2cc(C)c(-c3cn(C)nc3C(F)(F)F)nn2)cc(Cl)n1
[2] CCOc1cc(NC(=O)NCc2cc(C)c(-c3cn(C)nc3C(F)(F)F)nn2)cc(Cl)n1
Hello, I am sorting some records. Could you say if 1 or 2 has the smaller pIC50 value? Could you answer with the label of the item you picked?
1
(1: 5.49, 2: 7.35)

---

biological target: Sphingosine 1-phosphate receptor 2 (Homo sapiens, UniProt O95136); assay: Antagonist activity at human S1P2 receptor expressed in CHO cells assessed as EC80 S1P-induced calcium flux measured for 3 mins by fluorescence assay; type: functional, cell-based
PROPERTY NAME: IC50

{"SMILES ENTRY": "CCOc1nc(Cl)cc2nc(NCc3cc(C)c(-c4cn(C)nc4C)cn3)[nH]c12", "IC50": "0.033 µM"}
{"SMILES ENTRY": "Cc1cc(CNC(=O)Nc2cc(C(F)(F)F)nc(OCCO)c2C)nnc1-c1cn(C)nc1C(F)(F)F", "IC50": "84 µM"}
{"SMILES ENTRY": "Cc1cc(CNC(=O)Cc2ccc(Cl)c(Cl)c2)ncc1-c1cn(C)nc1C", "IC50": "> 19 µM"}
{"SMILES ENTRY": "Cc1cc(CO)nc(NNC(=O)Nc2cc(Cl)nc(Cl)c2)c1", "IC50": "> 6.6 µM"}
{"SMILES ENTRY": "Cc1cc(NNC(=O)Nc2cc(Cl)nc(Cl)c2)ncc1C#N", "IC50": "6 µM"}

Entry CCOc1nc(C)cc(NC(=O)NCc2cc(C)c(-c3cn(C)nc3C(F)(F)F)nn2)c1C#N needs its IC50 filled in; supply it.
> 20 µM

Entry Cc1cc(NNC(=O)Nc2cc(Cl)nc(Cl)c2)nc(C(=O)N(C)C)c1 needs its IC50 filled in; supply it.
> 19 µM

Entry Cc1cc(NNC(=O)Nc2cc(Cl)nc(Cl)c2)ncc1-c1cn(C)nc1C needs its IC50 filled in; supply it.
> 1.4 µM
